# System: E. coli ATCC 10536
# protocol description: In vitro antibacterial activity, MIC (standard strain)
# Format: cell-based
# measurement parameters: Escherichia coli, ATCC10536
Structures can show the parent of a compound that is named as a salt.
Please provide measured MIC for the entries that follow.
Your answer should be a plain number; it is taken to be in µg/mL.

*Q* Missing value: MIC, E. coli ATCC 10536, entry NCC1CCN(c2cc3c(cc2F)c(=O)c(C(=O)O)cn3C2CC2)C1 (stereo not shown) . Fill in?
*A* 0.05

*Q* Can you look up MIC on E. coli ATCC 10536 for O=C(O)c1cn(C2CC2)c2cc(N3CCNCC3)c(F)cc2c1=O [CFLX, Ciprofloxacin, reference compound] ?
*A* 0.025

*Q* Observed MIC on E. coli ATCC 10536 for NCC1CCN(c2c(F)cc3c(=O)c(C(=O)O)cn(C4CC4)c3c2Cl)C1 (stereo not shown) [Example 14, hydrochloride] , please.
*A* 0.0125

*Q* I'm curious: which MIC was measured for NCC1CCN(c2c(F)cc3c(=O)c(C(=O)O)cn(C4CC4)c3c2Br)C1 (stereo not shown) tested on E. coli ATCC 10536?
*A* 0.0125

---

# System: S. pyogenes 3130
# protocol description: In vitro antibacterial activity, MIC (clinical isolates)
# Type: cell-based
# measurement parameters: Streptococcus pyogenes, read-out: MIC
Counter-ions that a name gives are not always drawn.
I'd appreciate it if you could supply MIC values for the items below.
Just the number please, in µg/mL, no unit attached.

*Q* Item CN(C)CC1CCN(c2c(F)cc3c(=O)c(C(=O)O)cn(C4CC4)c3c2Cl)C1 (stereo not shown) has what recorded MIC?
*A* 0.05

*Q* Find the recorded MIC belonging to CCNCC1CCN(c2c(F)cc3c(=O)c(C(=O)O)cn(C4CC4)c3c2Br)C1 (stereo not shown) and report it.
*A* 0.05

*Q* Reported MIC, compound CNCC1CCN(c2cc3c(cc2F)c(=O)c(C(=O)O)cn3C2CC2)C1 (stereo not shown) [Example 9, hydrochloride] : ____
*A* 0.1

*Q* Which value of MIC has been reported for CCNCC1CCN(c2c(F)cc3c(=O)c(C(=O)O)cn(C4CC4)c3c2F)C1 (stereo not shown) [Example 2, hydrochloride] in the records?
*A* 0.05

*Q* I would be grateful if you could share the reported MIC for CCNCC1CCN(c2cc3c(cc2F)c(=O)c(C(=O)O)cn3C2CC2)C1.Cl (stereo not shown) .
*A* 0.2

*Q* Report MIC for NCC1CCN(c2c(F)cc3c(=O)c(C(=O)O)cn(C4CC4)c3c2F)C1 (stereo not shown) [Example 1, hydrochloride] please.
*A* 0.05

*Q* Entry NCC1CCN(c2c(F)cc3c(=O)c(C(=O)O)cn(C4CC4)c3c2Br)C1 (stereo not shown) : reported MIC = ?
*A* 0.05

*Q* Fill in: MIC of CNCC1CCN(c2c(F)cc3c(=O)c(C(=O)O)cn(C4CC4)c3c2F)C1 (stereo not shown) [Example 8, hydrochloride] is ___
*A* 0.05

*Q* Which MIC is reported for this compound? CNCC1CCN(c2c(F)cc3c(=O)c(C(=O)O)cn(C4CC4)c3c2Br)C1 (stereo not shown)
*A* 0.05

*Q* Quick check: MIC of CN(C)CC1CCN(c2c(F)cc3c(=O)c(C(=O)O)cn(C4CC4)c3c2F)C1 (stereo not shown) ?
*A* 0.1

*Q* Returns the measured MIC for the input compound. Input: CNCC1CCN(c2c(F)cc3c(=O)c(C(=O)O)cn(C4CC4)c3c2Cl)C1 (stereo not shown) [Example 12, hydrochloride]
*A* 0.05

*Q* If you can, please state the reported MIC value of CCNCC1CCN(c2c(F)cc3c(=O)c(C(=O)O)cn(CC)c3c2F)C1 (stereo not shown) [Ref.1, reference compound] .
*A* 0.2

*Q* MIC for NCC1CCN(c2c(F)cc3c(=O)c(C(=O)O)cn(C4CC4)c3c2Cl)C1 (stereo not shown) [Example 14, hydrochloride] ?
*A* 0.025

*Q* Item under review: CCNCC1CCN(c2c(F)cc3c(=O)c(C(=O)O)cn(C4CC4)c3c2Cl)C1 (stereo not shown) . Reported MIC?
*A* 0.05

*Q* For the compound shown here, CCCNCC1CCN(c2c(F)cc3c(=O)c(C(=O)O)cn(C4CC4)c3c2F)C1 (stereo not shown) [Example 10, hydrochloride] , give the reported MIC.
*A* 0.2

*Q* Need MIC, item CC(C)NCC1CCN(c2c(F)cc3c(=O)c(C(=O)O)cn(C4CC4)c3c2F)C1.Cl (stereo not shown)
*A* 0.2
